Assay: Clearance in Sprague-Dawley rat at 1 mg/kg, iv
Type: ADME, organism-based
Set-up: dose 1 mg/kg, route intravenous
Settings: in vivo

| Chem smiles | clearance, mL/min/kg |
| --- | --- |
| Cc1ncc2cc(-c3c(C)ccc(C(=O)c4c(-c5ccccc5)n(C)n(-c5ccccc5)c4=O)c3N)ccc2n1 | 36.7 |
| Cc1ccc(C(=O)c2c(-c3ccccc3)n(C)n(-c3ccccc3)c2=O)c(N)c1-c1ccc2nc(C(F)(F)F)sc2c1 | 12.5 |
| CNc1ncc2c(Cl)c(-c3c(C)ccc(C(=O)c4c(-c5ccccc5)n(C)n(-c5ccccc5)c4=O)c3N)ccc2n1 | 8.33 |
| Cc1ccc(C(=O)c2c(-c3ccccc3)n(C)n(-c3ccccc3)c2=O)c(N)c1-c1ccc2nc(C(F)F)sc2c1 | 15.7 |

* * *

Assay: Clearance in Sprague-Dawley rat at 1 mg/kg, iv
Format: ADME, organism-based
Set-up: dose 1 mg/kg, route intravenous
Conditions: in vivo

| Chem smiles | clearance |
| --- | --- |
| Cc1ccc(C(=O)c2c(-c3ccccc3)n(C)n(-c3ccccc3)c2=O)c(N)c1-c1ccc2nc(N)sc2c1 | 50 mL/min/kg |
| CNc1ncc2c(F)c(-c3c(C)ccc(C(=O)c4c(-c5ccccc5)n(C)n(-c5ccccc5)c4=O)c3N)ccc2n1 | 9.5 mL/min/kg |
| CNc1nc2ccc(-c3c(C)ccc(C(=O)c4c(-c5ccccc5)n(C)n(-c5ccccc5)c4=O)c3N)cc2s1 | 10.7 mL/min/kg |
| COc1cc2nccc(Oc3ccc(NC(=O)c4c(-c5ccccc5)n(C)n(-c5ccccc5)c4=O)nc3)c2cc1OC | 1.17 mL/min/kg |
| CNc1ncc2cc(-c3cc(C(=O)c4c(-c5ccccc5)n(C)n(-c5ccccc5)c4=O)ccc3N)ccc2n1 | 16.7 mL/min/kg |
| Cc1nc(N)c2c(-c3ccc4c(c3)CCN4C(=O)Cc3cc(F)cc(C(F)(F)F)c3)cn(C)c2n1 | 1.67 mL/min/kg |
| Cc1nc2ccc(-c3c(C)ccc(C(=O)c4c(-c5ccccc5)n(C)n(-c5ccccc5)c4=O)c3N)cc2s1 | 23.3 mL/min/kg |
| Cc1ccc2cc(-c3c(C)ccc(C(=O)c4c(-c5ccccc5)n(C)n(-c5ccccc5)c4=O)c3N)ccc2n1 | 26.7 mL/min/kg |

* * *

Test: Mean residence time in Sprague-Dawley rat at 1 mg/kg, iv
Assay type: ADME, organism-based
Design: dose 1 mg/kg, route intravenous
Details: in vivo
Each item that follows carries a reported MRT.

| Chem smiles | MRT, h |
| --- | --- |
| Cc1ccc(C(=O)c2c(-c3ccccc3)n(C)n(-c3ccccc3)c2=O)c(N)c1-c1ccc2nc(N)sc2c1 | 2.2 |
| CNc1ncc2cc(-c3cc(C(=O)c4c(-c5ccccc5)n(C)n(-c5ccccc5)c4=O)ccc3N)ccc2n1 | 0.5 |
| Cc1ccc2cc(-c3c(C)ccc(C(=O)c4c(-c5ccccc5)n(C)n(-c5ccccc5)c4=O)c3N)ccc2n1 | 2.3 |
| Cc1ccc(C(=O)c2c(-c3ccccc3)n(C)n(-c3ccccc3)c2=O)c(N)c1-c1ccc2nc(C(F)F)sc2c1 | 5.3 |

* * *

Experiment: Oral bioavailability in Sprague-Dawley rat at 2 mg/kg compound dosed in 1% Tween 80/99% OraPlus
Assay type: ADME, organism-based
Details: in vivo

| Chem smiles | Unit of measurement | bioavailability |
| --- | --- | --- |
| COc1cc2nccc(Oc3ccc(NC(=O)c4c(-c5ccccc5)n(C)n(-c5ccccc5)c4=O)nc3)c2cc1OC | % | 50 |
